- System tested: GDP-loaded K-Ras (1-169) C51S, C80L, C118S (Homo sapiens, UniProt P01116, C118S/C51S/C80L)
- Construct: GDP-loaded K-Ras (1-169) C51S, C80L, C118S
- Protocol summary: K-Ras WT (GDP) cross-linking assay (conjugate formation, TOF mass spectrometry)
- Type: binding
- Experimental conditions: Table 4; percent covalently modified K-Ras by MS; room temperature; typical compound conc. 2, 10, 25 μM, endpoints 1 and 24 h
Result type: WT x-linking (%)

Worked examples, 4 molecules total:
COCCN=C=NC1CCN(c2nc(=O)n(-c3c(C)ccnc3C(C)C)c3nc(-c4ccccc4F)c(F)cc23)CC1
+ (0 < x ≤ 20)
COc1ccc(CN=C=NC2CCN(c3nc(OC[C@@H]4CCCN4C)nc4c3CCN(c3cccc5cccc(C)c35)C4)CC2)cc1
+ (0 < x ≤ 20)
Fc1ccccc1-c1c(Cl)cc2c(N3CCN(C4=NCCO4)CC3)ncnc2c1F
+ (0 < x ≤ 20)
O=C(C1CCN(c2ncnc3c(F)c(-c4ccccc4F)c(Cl)cc23)CC1)C(F)(F)F
0

Dear colleague, could you send me WT x-linking (%) for each of the items below? Thanks.
1. Cc1cccc2cccc(N3CCc4c(nc(OC[C@@H]5CCCN5C)nc4N4CCC(N=C=NC(C)C)CC4)C3)c12
2. CN=C=NC1CCN(c2nc(OC[C@@H]3CCCN3C)nc3c2CCN(c2cccc4cccc(C)c24)C3)CC1
3. COCCN=C=NC1CCN(c2nc(OC[C@@H]3CCCN3C)nc3c2CCN(c2cccc4cccc(C)c24)C3)CC1

Ans:
+ (0 < x ≤ 20)
++ (20 < x ≤ 100)
++ (20 < x ≤ 100)

Dear colleague, could you send me WT x-linking (%) for each of the items below? Thanks.
1. Cc1cccc2cccc(N3CCc4c(nc(OC[C@@H]5CCCN5C)nc4NCCNC(=O)NCCCl)C3)c12
2. Fc1ccccc1-c1c(Cl)cc2c(N3CCC(N=C=Nc4ccccc4)CC3)ncnc2c1F
3. Cc1cccc2cccc(N3CCc4c(nc(OC[C@@H]5CCCN5C)nc4N4CCN(C5=NCCO5)[C@@H](CC#N)C4)C3)c12
4. Cc1cccc2cccc(N3CCc4c(nc(OC[C@@H]5CCCN5C)nc4N(C)CCN=C=NCc4ccccc4)C3)c12
5. COc1ccc(N=C=NC2CCN(c3ncnc4c(F)c(-c5ccccc5F)c(Cl)cc34)CC2)cc1
6. COCCN=C=NCCCN(C)c1nc(=O)n(-c2c(C)ccnc2C(C)C)c2nc(-c3ccccc3F)c(F)cc12

Ans:
1. + (0 < x ≤ 20)
2. + (0 < x ≤ 20)
3. 0
4. + (0 < x ≤ 20)
5. 0
6. ++ (20 < x ≤ 100)

Dear colleague, could you send me WT x-linking (%) for each of the items below? Thanks.
1. COc1ccc(CN=C=NCCN(C)c2nc(OC[C@@H]3CCCN3C)nc3c2CCN(c2cccc4cccc(C)c24)C3)cc1
2. CC(=O)N1CC1C(=O)N1CCN(c2ncnc3c(F)c(-c4ccccc4F)c(Cl)cc23)CC1 (stereo not drawn)
3. CN=C=NC1CCN(c2ncnc3c(F)c(-c4ccccc4F)c(Cl)cc23)CC1
4. CC(C)N=C=NC1CCN(c2ncnc3c(F)c(-c4ccccc4F)c(Cl)cc23)CC1
5. Cc1cccc2cccc(N3CCc4c(nc(OC[C@@H]5CCCN5C)nc4N4CCC(N=C=NCc5ccccc5)CC4)C3)c12
6. CCCN=C=NCCCN(C)c1nc(=O)n(-c2c(C)ccnc2C(C)C)c2nc(-c3ccccc3F)c(F)cc12
7. CN=C=NCCN(C)c1ncnc2c(F)c(-c3ccccc3F)c(Cl)cc12
8. Cc1cccc2cccc(N3CCc4c(nc(OC[C@@H]5CCCN5C)nc4N(C)CCN=C=NCc4ccc(Cl)cc4)C3)c12

Ans:
1: ++ (20 < x ≤ 100); 2: + (0 < x ≤ 20); 3: + (0 < x ≤ 20); 4: + (0 < x ≤ 20); 5: + (0 < x ≤ 20); 6: ++ (20 < x ≤ 100); 7: + (0 < x ≤ 20); 8: + (0 < x ≤ 20)

Cited source for all entries: patent US20230100838A1
